// values below are reported IC50
biological target: human PDE4B1 (Homo sapiens (Human)); test: cAMP HTRF assay to determine the activity of hPDE4B1; format: biochemical; settings: IC50 inhibition of PDE4B; human recombinant PDE4B1, cAMP HTRF assay

| MOLECULE | IC50 |
| --- | --- |
| O=C(c1ccc2c(c1)N(c1ncc(-c3ccc(F)cc3)cn1)CC21CC1)N1CCOCC1 | < 0.1 µM |
| O=C(O)C1CCN(C(=O)c2ccc3c(c2)N(c2ncc(-c4ccccc4F)cn2)CC32CC2)CC1 | 1 to 10 µM |
| CN(C)C(=O)c1ccc(-c2cnc(N3CC4(CC4)c4ccc(C(=O)N5CCOCC5)cc43)nc2)c(F)c1 | < 0.1 µM |
| Cc1n[nH]c(C)c1-c1cnc(N2CC3(CC3)c3ccc(C(=O)N4CCOCC4)cc32)nc1 | < 0.1 µM |
| NC(=O)c1ccc(-c2cnc(N3CC4(CC4)c4ccc(C(=O)N5CCOCC5)cc43)nc2)cc1 | < 0.1 µM |
| Cn1ccc(-c2cnc(N3CC4(CC4)c4ccc(C(=O)N5CC[C@@H](N)C5)cc43)nc2)c1 | < 0.1 µM |
| Cn1nc(C(F)(F)F)cc1-c1cnc(N2CC3(CC3)c3ccc(C(=O)N4CCOCC4)cc32)nc1 | 0.1 to 1 µM |
| C[C@@H]1CN(C(=O)c2ccc3c(c2)N(c2ncc(-c4ccccc4F)cn2)CC32CC2)C[C@H](C)O1 | < 0.1 µM |
| O=C(c1ccc2c(c1)N(c1ncc(-c3c(F)cccc3C(F)(F)F)cn1)CC21CC1)N1CCOCC1 | 1 to 10 µM |
| Cc1cccc(F)c1-c1cnc(N2CC3(CC3)c3ccc(C(=O)N4CCOCC4)cc32)nc1 | 0.1 to 1 µM |
| NC(=O)c1cccc(F)c1-c1cnc(N2CC3(CC3)c3ccc(C(=O)N4CCOCC4)cc32)nc1 | 0.1 to 1 µM |
| O=C(c1ccc2c(c1)N(c1ncc(-c3cn[nH]c3C(F)(F)F)cn1)CC21CC1)N1CCOCC1 | < 0.1 µM |
| Cn1cc(-c2cnc(N3CC4(CC4)c4ccc(C(=O)N5CC[C@@H](N)C5)cc43)nc2)cn1 | < 0.1 µM |
| CC(=O)Nc1ccc(-c2cnc(N3CC4(CC4)c4ccc(C(=O)N5CCOCC5)cc43)nc2)s1 | < 0.1 µM |
| O=C(c1ccc2c(c1)N(c1ncc(-c3ccccc3F)cn1)CC21CC1)N1CCNCC1 | < 0.1 µM |
| O=C(c1ccc2c(c1)N(c1ncc(-c3ccc(Cl)s3)cn1)CC21CC1)N1CCOCC1 | 0.1 to 1 µM |
| O=C(c1ccc2c(c1)N(c1ncc(-c3ccccc3C3CC3)cn1)CC21CC1)N1CCOCC1 | 1 to 10 µM |
| Cc1cc(-c2cnc(N3CC4(CC4)c4ccc(C(=O)N5CCOCC5)cc43)nc2)sn1 | < 0.1 µM |
| CC1(C)CN(C(=O)c2ccc3c(c2)N(c2ncc(-c4ccccc4F)cn2)CC32CC2)CCO1 | 0.1 to 1 µM |
| O=C(c1ccc2c(c1)N(c1ncc(-c3ccccn3)cn1)CC21CC1)N1CCCC1 | < 0.1 µM |
| CN(C)CCN(C)C(=O)c1ccc2c(c1)N(c1ncc(-c3ccccc3F)cn1)CC21CC1 | < 0.1 µM |
| COc1ccc(F)c(-c2cnc(N3CC4(CC4)c4ccc(C(=O)N5CCOCC5)cc43)nc2)c1 | < 0.1 µM |
| O=C(c1ccc2c(c1)N(c1ncc(-c3cccc(F)c3)cn1)CC21CC1)N1CCOCC1 | < 0.1 µM |
| CN(C)C(=O)c1ccccc1-c1cnc(N2CC3(CC3)c3ccc(C(=O)N4CCOCC4)cc32)nc1 | 0.1 to 1 µM |
| NC(=O)c1ccc(-c2cnc(N3CC4(CC4)c4ccc(C(=O)N5CCOCC5)cc43)nc2)o1 | < 0.1 µM |
| CN(C)[C@@H]1CCN(C(=O)c2ccc3c(c2)N(c2ncc(-c4ccccc4F)cn2)CC32CC2)C1 [Compound 110] | 0.1 to 1 µM |
| NC(=O)c1ccc(-c2cnc(N3CC4(CC4)c4ccc(C(=O)N5CCNCC5)cc43)nc2)c(F)c1 | < 0.1 µM |
| COCCCNC(=O)c1ccc2c(c1)N(c1ncc(-c3ccccc3F)cn1)CC21CC1 | 0.1 to 1 µM |
| NC(=O)c1ccc(-c2cnc(N3CC4(CC4)c4ccc(C(=O)N5CCOCC5)cc43)nc2)c(F)c1 | < 0.1 µM |
| CN(C)C(=O)c1ccc2c(c1)N(c1ncc(-c3cccc(F)c3)cn1)CC21CC1 | < 0.1 µM |
| COc1cccc(F)c1-c1cnc(N2CC3(CC3)c3ccc(C(=O)N4CCOCC4)cc32)nc1 | 0.1 to 1 µM |

====

target: human PDE4B1 (Homo sapiens (Human)); assay: cAMP HTRF assay to determine the activity of hPDE4B1; assay type: biochemical; settings: IC50 inhibition of PDE4B; human recombinant PDE4B1, cAMP HTRF assay
Documented IC50 across a set of compounds

| COMPOUND | IC50 |
| --- | --- |
| O=C(NCC1CCOCC1)c1ccc2c(c1)N(c1ncc(-c3ccccc3F)cn1)CC21CC1 | 1 to 10 µM |
| CN(CCO)C(=O)c1ccc2c(c1)N(c1ncc(-c3cnn(C)c3)cn1)CC21CC1 | < 0.1 µM |
| O=C(c1ccc2c(c1)N(c1ncc(-c3ccccc3F)cn1)CC21CC1)N1CCCCC1 | < 0.1 µM |
| O=C1CN(C(=O)c2ccc3c(c2)N(c2ncc(-c4ccccc4)cn2)CC32CC2)CCN1 | < 0.1 µM |
| O=C(c1ccc2c(c1)N(c1ncc(-c3cc(Cl)ccc3F)cn1)CC21CC1)N1CCOCC1 | < 0.1 µM |
| CN(CCO)C(=O)c1ccc2c(c1)N(c1ncc(-c3ccccc3F)cn1)CC21CC1 | < 0.1 µM |
| CNC(=O)c1ccc2c(c1)N(c1ncc(-c3ccccc3F)cn1)CC21CC1 | 0.1 to 1 µM |
| N#Cc1ccccc1-c1cnc(N2CC3(CC3)c3ccc(C(=O)N4CCOCC4)cc32)nc1 | 0.1 to 1 µM |
| O=C(c1ccc2c(c1)N(c1ncc(-c3ccccc3)cn1)CC21CC1)N1CCNCC1 | < 0.1 µM |
| CC(=O)N1CCNC(C(=O)c2ccc3c(c2)N(c2ncc(-c4ccccc4F)cn2)CC32CC2)C1 (stereo not shown) | < 0.1 µM |
| N#CCCN1CCN(C(=O)c2ccc3c(c2)N(c2ncc(-c4ccccc4F)cn2)CC32CC2)CC1 | 0.1 to 1 µM |
| O=C(c1ccc2c(c1)N(c1ncc(-c3ccccc3F)cn1)CC21CC1)N1CCS(=O)(=O)CC1 | 0.1 to 1 µM |
| O=C1CN(C(=O)c2ccc3c(c2)N(c2ncc(-c4cc(F)cc(F)c4)cn2)CC32CC2)CCN1 | < 0.1 µM |
| N[C@H]1CCN(C(=O)c2ccc3c(c2)N(c2ncc(-c4ccccc4F)cn2)CC32CC2)C1 | < 0.1 µM |
| COC[C@@H]1CCCN1C(=O)c1ccc2c(c1)N(c1ncc(-c3ccccc3F)cn1)CC21CC1 | 0.1 to 1 µM |
| CC1COCCN1C(=O)c1ccc2c(c1)N(c1ncc(-c3ccccc3F)cn1)CC21CC1 (stereo not shown) | < 0.1 µM |

====

// reported IC50 per item
target: human PDE4B1 (Homo sapiens (Human)); assay: cAMP HTRF assay to determine the activity of hPDE4B1; assay type: biochemical; conditions: IC50 inhibition of PDE4B; human recombinant PDE4B1, cAMP HTRF assay
OBSERVATION_TYPE: IC50

| INPUT_SMILES | OBSERVED_VALUE |
| --- | --- |
| O=C(c1ccc2c(c1)N(c1ncc(-c3ccccc3F)cn1)CC21CC1)N1CCC1 | 0.1 to 1 µM |
| Cc1cc(-c2cnc(N3CC4(CC4)c4ccc(C(=O)N(C)CCO)cc43)nc2)ccn1 | < 0.1 µM |
| CN(C)C(=O)c1ccc2c(c1)N(c1ncc(-c3ccccc3F)cn1)CC21CC1 | < 0.1 µM |
| COc1ccccc1-c1cnc(N2CC3(CC3)c3ccc(C(=O)N4CCOCC4)cc32)nc1 | < 0.1 µM |

====

molecular target: human PDE4B1 (Homo sapiens (Human), UniProt Q07343); assay: TR-FRET assay using the LANCE Ultra cAMP kit to determine the activity of hPDE4B1; type: biochemical; conditions: IC50 inhibition of PDE4B, mean
Sequence (Q07343 whole entry): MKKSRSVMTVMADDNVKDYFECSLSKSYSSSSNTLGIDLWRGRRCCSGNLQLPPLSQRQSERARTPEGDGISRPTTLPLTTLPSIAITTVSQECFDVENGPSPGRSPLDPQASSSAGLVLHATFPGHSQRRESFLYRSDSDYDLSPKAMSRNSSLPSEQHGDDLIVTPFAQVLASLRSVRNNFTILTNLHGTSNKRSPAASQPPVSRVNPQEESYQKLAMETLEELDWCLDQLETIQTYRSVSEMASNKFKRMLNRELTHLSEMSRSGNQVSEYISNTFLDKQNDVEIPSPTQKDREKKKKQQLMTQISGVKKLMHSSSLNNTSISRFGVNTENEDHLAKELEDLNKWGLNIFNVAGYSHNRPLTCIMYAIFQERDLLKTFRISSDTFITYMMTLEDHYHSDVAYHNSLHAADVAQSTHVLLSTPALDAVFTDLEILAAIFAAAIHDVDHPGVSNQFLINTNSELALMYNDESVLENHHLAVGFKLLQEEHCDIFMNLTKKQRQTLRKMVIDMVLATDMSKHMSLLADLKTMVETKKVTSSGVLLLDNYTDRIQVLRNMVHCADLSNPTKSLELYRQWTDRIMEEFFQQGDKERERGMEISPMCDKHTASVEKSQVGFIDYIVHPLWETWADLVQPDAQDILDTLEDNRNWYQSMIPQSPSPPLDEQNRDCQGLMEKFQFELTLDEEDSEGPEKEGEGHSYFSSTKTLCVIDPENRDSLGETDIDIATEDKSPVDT

| MOLECULE | IC50 |
| --- | --- |
| CN(CCO)C(=O)c1ccc2c(c1)N(c1ncc(-c3cccc(Cl)c3)cn1)CC21CC1 [Compound 273] | < 0.1 µM |
| CN(CCO)C(=O)c1ccc2c(c1)N(c1ncc(-c3cn(C)cn3)cn1)CC21CC1 [Compound 323] | < 0.1 µM |
| CN(C)c1ccnc(-c2cnc(N3CC4(CC4)c4ccc(C(=O)N5C[C@@H]6C[C@H]5CN6)cc43)nc2)c1 [Compound 302] | < 0.1 µM |
| CCc1nc(-c2cnc(N3CC4(CC4)c4ccc(C(=O)N(C)CCO)cc43)nc2)cs1 [Compound 325] | < 0.1 µM |
